# self-cleavage listing for each entry below
B1: Hairpin Ribozyme (parent)
chain: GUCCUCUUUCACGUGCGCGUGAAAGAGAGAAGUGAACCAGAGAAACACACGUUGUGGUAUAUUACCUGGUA

- Variants of: B1
- testDescription: self-cleavage, relative activity (ratio to wild type); higher = more cleavage; co-transcriptional
readoutLabel: self-cleavage

- G21C A26C: 0.164
- G40U U67C: 0.0949
- U5A A41U: 0.818
- U20C A64U: 0.152
- U9A U63G: 0.151
- A47G U63A: 0.211
- C6A G32C: 0.133
- U2A G68C: 0.154
- C16A C46U: 0.0901
- G17A A49U: 0.141
- G34U A41U: 1.53
- U2C G32C: 0.174
- C46U U62G: 0.237
- U9A C16U: 0.624
- A41G U60G: 0.367
- C4U C6A: 0.0821
- A24U G42A: 0.257
- C4A C6G: 0.161
- G56U U58C: 0.0906
- C6A G21C: 0.364
- C4U G57U: 0.161
- A26C A47G: 0.187
- C3G A30U: 0.118
- C3G C16U: 0.305
- C66U U67A: 0.162
- G1A A26C: 0.147
- U20C U55C: 0.159
- C38A G54A: 0.0977
- A22G A41U: 0.921
- G27A U52A: 0.337
- A26C U67G: 0.196
- C10G U70A: 0.592
- C48G U67A: 0.259
- A26G U62C: 0.277
- A26C A44G: 0.124
- U55A U67A: 0.219
- G27C G32C: 0.13
- G13A A41G: 0.777
- C18U C37U: 0.713
- G17C C37G: 0.362
- A31U G34U: 0.167
- G21U A59U: 0.147
- G29U G32A: 0.169
- A59C A71C: 0.304
- A26C A39C: 0.47
- A24G A30C: 0.119
- U2C A11G: 0.172
- G42A U70C: 0.128
- C10G U63G: 0.113
- C16U C37A: 0.361
- G21C U67A: 0.212
- U2A G19U: 0.244
- G17C G54C: 0.387
- C16G U60G: 0.511
- A43G A49C: 0.116
- A26U A61G: 0.187
- U62A U70G: 0.16
- U14C A71G: 1.24
- G15A A28C: 0.586
- U5A G68U: 0.154
- A11U A30G: 0.0913
- G32C A39C: 0.135
- C50U A61G: 0.199
- A41C A49G: 0.561
- C16A A47C: 0.365
- A31G A39U: 0.105
- U7G A64C: 0.24
- A45G A49C: 0.103
- A47G A64C: 0.0744
- C50U U62C: 0.0808
- C37A C46U: 0.0922
- C12U A30U: 0.136
- G25U C66G: 0.177
- C6U U67A: 0.151
- G40A A44G: 0.144
- A30U C50G: 0.157
- G29C A64C: 0.133
- G21C A43C: 0.146
- A39C A44U: 0.129
- A71C: 1.42
- G40A U58G: 0.19
- C66U G68A: 0.0865
- A26C A59C: 0.0674
- U58C A59U: 0.192
- G13U G68U: 0.243
- U33A C50A: 0.18
- A59U C66A: 0.128
- A26U A36G: 0.723
- U9G C37A: 0.117
- G1A G15A: 0.208
- C3G A28G: 0.362

Just for reference, the RNAGym collection of RNA variant scans (doi:10.7554/elife.80360) is where these values come from.
